test system: EPHA4; conditions: concentration: 1 μM, replicates: in singlicate; n = 1;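 also: KINOMEscan kinase panel screen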
Readings of %Inh for the listed compounds
# do not omit the unit; it follows the number

A selection of reference data follows.
Asked: Please give the measured %Inh for this compound: CC(=O)N1CCN(c2ccc(Nc3nccc(-c4sc(C(C)C)nc4-c4cccc(NS(=O)(=O)c5cccc(Cl)c5)c4)n3)cn2)CC1 [GSK1660437]
Given back: 0%

Asked: Please give the measured %Inh for this compound: CC(C)c1nc(-c2cccc(NS(=O)(=O)c3c(F)cccc3F)c2F)c(-c2ccnc(Nc3ccc(N4CCOCC4)nc3)n2)s1 [GSK2008607]
Given back: 74%

Further cases:
Asked: Please give the measured %Inh for this compound: COc1ccc(-c2coc3ccc(-c4nnc(SCc5ccc(OC)c(C(F)(F)F)c5)o4)cc23)cc1
Given back: 8%

Asked: Please give the measured %Inh for this compound: Clc1ccc(-c2nn3ncccc3c2-c2ccnc(Nc3ccc4c(c3)OCCO4)n2)cc1 [GW829116]
Given back: 12%

Asked: Please give the measured %Inh for this compound: Cc1cccc(Nc2nc(N[C@H]3CCNC3)ncc2C(N)=O)c1.Cl [GSK2197149]
Given back: 8%

Asked: Please give the measured %Inh for this compound: Cl.Cl.NCC(NCc1ccc(-c2ccnc3[nH]ccc23)s1)c1ccccc1 (stereo not shown) [GSK1321565]
Given back: 0%

Asked: Please give the measured %Inh for this compound: COc1ccc(Nc2nccc(N3CCC(NC(=O)Nc4cccc(OC)c4)C3)n2)cc1 (stereo not shown) [GSK1379742]
Given back: 1%

Asked: Please give the measured %Inh for this compound: C[C@@H](Oc1cc(-n2cnc3cc(-c4ccnc(NCCS(C)(=O)=O)c4)ccc32)sc1C(N)=O)c1ccccc1Cl [GSK907232]
Given back: 10%

Asked: Please give the measured %Inh for this compound: FC(F)(F)c1ccc(/C=C/c2cncnc2Nc2ccc3[nH]c(Cc4ccccc4)nc3c2)cc1 [GW709199]
Given back: 0%

Asked: Please give the measured %Inh for this compound: CNC(=O)c1ccccc1Nc1nc(Nc2ccc(N3CCOCC3)cc2)ncc1Cl.Cl [GSK1576028]
Given back: 29%

###

test system: PIK3C2G; conditions: concentration: 1 μM, replicates: in singlicate; n = 1
recorded.endpoint: %Inh (%)
# output: bare number, implied unit %

A selection of reference data follows.
Asked: Please give the measured %Inh for this molecule: O=C(O)C(F)(F)F.O=C(O)C(F)(F)F.O=c1[nH]ccc2nc(N[C@@H]3CCCNC3)nc(Nc3ccc(S(=O)(=O)N4CCOCC4)cc3)c12
Given back: 0

Asked: Please give the measured %Inh for this molecule: COc1cccc(C2=C(Nc3ccc(Cl)c(C(=O)O)c3)C(=O)NC2=O)c1
Given back: 100

Asked: Please give the measured %Inh for this molecule: COc1cccc(NC(=O)NC2CCN(c3ccnc(Nc4cc(OC)c(OC)c(OC)c4)n3)C2)c1 (stereo not drawn)
Given back: 0

Asked: Please give the measured %Inh for this molecule: Nc1n[nH]c2cnc(-c3ccccc3)cc12
Given back: 0

Asked: Please give the measured %Inh for this molecule: COc1cc(Nc2nccc(N3CCC(NC(=O)c4cc5ccccc5s4)C3)n2)cc(OC)c1OC (stereo not drawn)
Given back: 0

Asked: Please give the measured %Inh for this molecule: Nc1ncc(-c2cccnc2)c2scc(-c3ccc4c(c3)CCN4C(=O)Cc3ccccc3)c12
Given back: 0

Asked: Please give the measured %Inh for this molecule: CCn1c(-c2nonc2N)nc2c(C#CC(C)(C)O)ncc(OCCCCN)c21.O=C(O)C(F)(F)F.O=C(O)C(F)(F)F
Given back: 11

Asked: Please give the measured %Inh for this molecule: CC(C)c1nc(-c2cccc(NS(=O)(=O)c3c(F)cccc3F)c2F)c(-c2ccnc(Nc3ccc(N4CCOCC4)nc3)n2)s1
Given back: 0

// switching to the query molecule
Asked: Please give the measured %Inh for this molecule: Cc1cccc(Nc2nc(N[C@H]3CCNC3)ncc2C(N)=O)c1.Cl
Given back: 0
